Cited source for all entries: ChEMBL document CHEMBL2384926

# pIC50 per record follows
- Test system: Influenza A virus
- EXPERIMENTAL_DETAILS: Antiviral activity against Influenza A virus A/Hong Kong/8/68(H3N2) infected in dog MDCK cells after 3 days by CPE assay
- Type: functional, organism-based
- ASSAY_CONTEXT: 72 h
pIC50: −log10 of the molar value.

CHEMICAL_STRING | STUDY_TARGET | pIC50
NC(=O)c1ncn([C@@H]2O[C@H](CO)[C@@H](O)[C@H]2O)n1 | Influenza A virus | 6.39
CC[C@@H](C)[C@H]1NC(=O)[C@@H](C)NC(=O)c2ccccc2NC(=O)[C@@H]([C@@H](O)c2ccccc2)N(C)C1=O | Influenza A virus | 5.09
